Exercise: state measured pIC50 for each of the compounds provided.
# System: BCPAP thyroid cancer cells
# protocol-notes: MTT cytotoxicity test, 72 h
# Type: cell-based, human
# conditions-used: read-out: IC50 BCPAP thyroid
Numbers only, as −log10 of the molar value.

Some entries whose results are on file:
>>> print(df.to_string())
                                   compound  recorded_value
0  [NH2][Pt]([NH2])([Cl])[Cl] [CDDP, Cisplatin]            5.13
1  O=C1[O][Pt]2([NH][C@@H]3CCCC[C@H]3[NH]2)[O]C1=O            5.36

// moving on: another record for pIC50
Which pIC50 is listed for [NH2][Pt]([NH2])([Cl])([Cl])([O]C(=O)CCCc1ccccc1)[O]C(=O)C(Cl)Cl [CPD, ctc-[Pt(NH3)2(PhB)(DCA)Cl2]] ?
6.96

The origin of these recorded values is paper PMC5944384.
